// data source = patent US20050261472A1

Below is a list of entries, each paired with its recorded Kd value.
Molecular target: DD(E) soluble fibrin-derived polypeptide (UniProt P02671)
Test: Kd against DD(E) target
Bridge positions count the residues as written; N and C are the ends. Ends that are not written are not given here.
measured.attribute: Kd (µM)

[[record]]
binder = "FHCPYDLCHI"
unit_annotation = "µM"
measured = 2

[[record]]
binder = "GQWECPYGLCWIQ (disulfide 5-10; not fully specified (N-terminus); also: Gd(III) chelate of DTPA) [Gd-DTPA-Gly[SEQ ID NO: 22]]"
unit_annotation = "µM"
measured = 3.1

[[record]]
binder = "H-PCDYYGTCL-NH2 (disulfide 2-8 (inferred)) [truncated peptide …]"
unit_annotation = "µM"
measured = 50

[[record]]
binder = "HCPYDLCHIL"
unit_annotation = "µM"
measured = 3.8

[[record]]
binder = "GWFHCPYDLCHIL (disulfide 5-10 (inferred); not fully specified (N-terminus); printed as Trp-Phe-His-Cys-Pro-Tyr-Asp-Leu-Cys-His-Ile-Leu; also: Gd(III) chelated by DTPA on N-terminal Gly) [Gd-DTPA-Gly[SEQ ID NO: 21]]"
unit_annotation = "µM"
measured = 2.9

[[record]]
binder = "H-LPCSYYGTCLH-NH2 (disulfide 3-9; SMILES CC(C)C[C@H](NC(=O)[C@@H]1CSSC[C@H](NC(=O)[C@@H]2CCCN2C(=O)[C@@H](N)CC(C)C)C(=O)N[C@@H](CO)C(=O)N[C@@H](Cc2ccc(O)cc2)C(=O)N[C@@H](Cc2ccc(O)cc2)C(=O)NCC(=O)N[C@@H]([C@@H](C)O)C(=O)N1)C(=O)N[C@@H](Cc1c[nH]cn1)C(N)=O)"
unit_annotation = "µM"
measured = 9.8

[[record]]
binder = "GFHCPYDLCHIL"
unit_annotation = "µM"
measured = 6.7

[[record]]
binder = "H-RPCNYYGTCLH-NH2 (disulfide 3-9; SMILES CC(C)C[C@H](NC(=O)[C@@H]1CSSC[C@H](NC(=O)[C@@H]2CCCN2C(=O)[C@@H](N)CCCNC(=N)N)C(=O)N[C@@H](CC(N)=O)C(=O)N[C@@H](Cc2ccc(O)cc2)C(=O)N[C@@H](Cc2ccc(O)cc2)C(=O)NCC(=O)N[C@@H]([C@@H](C)O)C(=O)N1)C(=O)N[C@@H](Cc1c[nH]cn1)C(N)=O)"
unit_annotation = "µM"
measured = 4

[[record]]
binder = "LPCDYYATCLD (C-terminal amide; N-terminus free) [alanine scan peptide …]"
unit_annotation = "µM"
measured = 12.3

[[record]]
binder = "WECPYGLCWIQ"
unit_annotation = "µM"
measured = 0.94

